The reported measurements were obtained from ChEMBL document CHEMBL6083261.

TGT: UniProt P0DTD1
EXPERIMENTAL PROTOCOL: Inhibition of SARS-CoV-2 PL protease

{"columns": ["SMILES NOTATION", "IC50"],
 "data": [
  ["COC(=O)CCSSC(=S)N1CCC(O)CC1", "> 100 µM"],
  ["OC1CCN(C(=S)SSc2ccccc2)CC1", "> 100 µM"],
  ["CCN(CC)C(=S)SSc1ccccc1", "> 100 µM"]
]}
